Tested on: Rattus norvegicus
methodSummary: Antidyslipidemic activity in Charles Foster rat assessed as reduction of Triton WR-1339-induced increase of blood total cholesterol level at 100 mg/kg, po after 18 hrs
Assay type: functional
Parameters: scale not given: the % may be the effect or the level left
Would you please tag the item label 1 when its Activity is -20% or above, and label 0 when it is below?

Check out these entries, answers already filled in.
compound="CC1(C)CC(=O)C2=C(C1)NC(c1ccccc1)=CC2c1ccc(Cl)cc1 (centres undefined)" experimentaltarget="Rattus norvegicus" classassignment="label 0"
compound="CCOC(=O)C1(O)CC(c2ccc(F)cc2)C2=C(CC(C)(C)CC2=O)O1 (centres undefined)" experimentaltarget="Rattus norvegicus" classassignment="label 1"
compound="CC1(C)CC(=O)C2=C(C1)NC(c1ccccc1)=CC2c1ccccc1 (centres undefined)" experimentaltarget="Rattus norvegicus" classassignment="label 1"

Quick check, Activity >= -20%? CC1(C)CC(=O)C2=C(C1)NC(C(=O)O)=CC2c1ccc(Cl)cc1 (centres undefined) label 1

Assess whether reported Activity for Cc1ccc(C)c(OCCCC(C)(C)C(=O)O)c1 [GEMFIBROZIL] sits at -20% or higher. label 0

Given CC1(C)CC(=O)C2=C(C1)NC(C(=O)O)=CC2c1ccccc1 (centres undefined) , state whether its Activity is at least -20%. label 1

###

Tested on: Rattus norvegicus
methodSummary: Antihyperglycemic activity in Sprague-Dawley albino rat streptozotocin-induced beta-cell damaged diabetic model assessed as decrease of blood glucose level at 100 mg/kg, po administered 30 mins before glucose challenge measured after 5 hrs by glucometer
Type: functional
Parameters: scale not given: the % may be the effect or the level left
The following compounds are listed with their measured Activity values.
Answer format: number, then unit.

Record excerpt, results attached:
compound="CCOC(=O)C1=CC(c2ccc(F)cc2)C2=C(CC(C)(C)CC2=O)N1 (centres undefined)" value=24.8%
compound="CN(C)C(=N)NC(=N)N [METFORMIN]" value=18%
compound="O=C1CCCC2=C1C(c1ccccc1)C=C(c1ccccc1)N2 (centres undefined)" value=15.1%
compound="CC1(C)CC(=O)C2=C(C1)NC(C(=O)O)=CC2c1ccc(Br)cc1 (centres undefined)" value=17.8%
compound="CC1(C)CC(=O)C2=C(C1)NC(C(=O)O)=CC2c1ccccc1 (centres undefined)" value=18.3%
compound="COc1ccc(Cl)cc1C(=O)NCCc1ccc(S(=O)(=O)NC(=O)NC2CCCCC2)cc1 [GLYBURIDE]" value=25.6%

The compound CC1(C)CC(=O)C2=C(C1)NC(C(=O)O)=CC2c1ccc(F)cc1 (centres undefined) showed Activity equal to 27.8%

Measured Activity, CC1(C)CC(=O)C2=C(C1)NC(C(=O)O)=CC2c1ccc(Cl)cc1 (centres undefined) : 16.6%

Value of measured Activity for the entry O=C1CCCC2=C1C(c1ccc(F)cc1)C=C(c1ccccc1)N2 (centres undefined) : 19.6%

###

Listing of entries alongside the reported Activity.
Test system: Rattus norvegicus
methodSummary: Antihyperglycemic activity in Charles Foster-Wistar albino rat sucrose loaded model assessed as decrease of blood glucose level at 100 mg/kg, po administered 30 mins before glucose challenge measured up to 120 mins by glucometer
Assay type: functional
Set-up: scale not given: the % may be the effect or the level left
conditionsUsed: in the assay text read “Sprague-Dawley” for “Charles Foster-Wistar”
Reply with a number, then the unit it belongs to.

molecule="O=C1CCCC2=C1C(c1ccccc1)C=C(c1ccccc1)N2 (stereo not given)" value=19.7%

Briefly, Activity measured for CCOC(=O)C1=CC(c2ccc(OC)cc2)C2=C(CC(C)(C)CC2=O)N1 (stereo not given) : 12.9%

Query CC1(C)CC(=O)C2=C(C1)NC(c1ccccc1)=CC2c1ccc([N+](=O)[O-])cc1 (stereo not given) yields Activity of 14.1%

Reported Activity for COc1ccc(C2C=C(c3ccccc3)NC3=C2C(=O)CC(C)(C)C3)cc1 (stereo not given) was 17.8%

# Activity of CC1(C)CC(=O)C2=C(C1)NC(C(=O)O)=CC2c1ccc(F)cc1 (stereo not given) = 38.7%

response.value for CCOC(=O)C1=CC(c2ccc(F)cc2)C2=C(CC(C)(C)CC2=O)N1 (stereo not given) (field: Activity) = 35.9%

###

Here the recorded Activity is given for each entry.
Test system: Rattus norvegicus
methodSummary: Antidyslipidemic activity in Charles Foster rat assessed as reduction of Triton WR-1339-induced increase of blood phospholipid level at 100 mg/kg, po after 18 hrs
Type: functional
Parameters: scale not given: the % may be the effect or the level left
Respond numerically; units are % and should not be typed.

Previously resolved entries follow.
molecule="COc1ccc(C2C=C(C(=O)O)NC3=C2C(=O)CC(C)(C)C3)cc1 (centres undefined)" value=-21.82
molecule="CC1(C)CC(=O)C2=C(C1)NC(c1ccccc1)=CC2c1ccccc1 (centres undefined)" value=-19.23
molecule="CC1(C)CC(=O)C2=C(C1)NC(C(=O)O)=CC2c1ccccc1 (centres undefined)" value=-7.89
molecule="CCOC(=O)C1(O)CC(c2ccc(F)cc2)C2=C(CC(C)(C)CC2=O)O1 (centres undefined)" value=-17.2
molecule="CC1(C)CC(=O)C2=C(C1)NC(c1ccccc1)=CC2c1ccc(F)cc1 (centres undefined)" value=-18.83
molecule="CC1(C)CC(=O)C2=C(C1)NC(c1ccccc1)=CC2c1ccc(Cl)cc1 (centres undefined)" value=-22.47

Activity recorded for this molecule, O=C1CCCC2=C1C(c1ccc(Cl)cc1)C=C(c1ccccc1)N2 (centres undefined) , is -5.9

For "Cc1ccc(C)c(OCCCC(C)(C)C(=O)O)c1" the molecule record lists Activity as -39.43

In plain terms, CC1(C)CC(=O)C2=C(C1)NC(C(=O)O)=CC2c1ccc(Cl)cc1 (centres undefined) has a documented Activity of -15.38

###

experimentalTarget: Glucose-6-phosphatase catalytic subunit 1 (Homo sapiens)
methodSummary: Inhibition of glucose-6-phosphatase assessed as inositol phosphate release at 100 uM after 30 mins
conditionsUsed: in the assay text read “inorganic phosphate” for “inositol phosphate”
Active and inactive are the calls of the source. The rule behind the calls is not given here.
measureName: inhibition

Some compounds with known inhibition results, for comparison:
compound="COc1ccc(C2C=C(c3ccccc3)NC3=C2C(=O)CCC3)cc1 (stereo not given)" value=17.3%
compound="CCOC(=O)C1(O)CC(c2ccc(Cl)cc2)C2=C(CC(C)(C)CC2=O)O1 (stereo not given)" value=inactive
compound="CC1(C)CC(=O)C2=C(C1)NC(C(=O)O)=CC2c1ccccc1 (stereo not given)" value=17.1%
compound="CC1(C)CC(=O)C2=C(C1)NC(c1ccccc1)=CC2c1ccc(Cl)cc1 (stereo not given)" value=7.16%

Reported inhibition of Cc1ccc(C2=CC(c3ccccc3)C3=C(CC(C)(C)CC3=O)N2)cc1 (stereo not given) : inactive

###

experimentalTarget: UniProtKB P27487
Sequence (P27487 whole entry, looked up): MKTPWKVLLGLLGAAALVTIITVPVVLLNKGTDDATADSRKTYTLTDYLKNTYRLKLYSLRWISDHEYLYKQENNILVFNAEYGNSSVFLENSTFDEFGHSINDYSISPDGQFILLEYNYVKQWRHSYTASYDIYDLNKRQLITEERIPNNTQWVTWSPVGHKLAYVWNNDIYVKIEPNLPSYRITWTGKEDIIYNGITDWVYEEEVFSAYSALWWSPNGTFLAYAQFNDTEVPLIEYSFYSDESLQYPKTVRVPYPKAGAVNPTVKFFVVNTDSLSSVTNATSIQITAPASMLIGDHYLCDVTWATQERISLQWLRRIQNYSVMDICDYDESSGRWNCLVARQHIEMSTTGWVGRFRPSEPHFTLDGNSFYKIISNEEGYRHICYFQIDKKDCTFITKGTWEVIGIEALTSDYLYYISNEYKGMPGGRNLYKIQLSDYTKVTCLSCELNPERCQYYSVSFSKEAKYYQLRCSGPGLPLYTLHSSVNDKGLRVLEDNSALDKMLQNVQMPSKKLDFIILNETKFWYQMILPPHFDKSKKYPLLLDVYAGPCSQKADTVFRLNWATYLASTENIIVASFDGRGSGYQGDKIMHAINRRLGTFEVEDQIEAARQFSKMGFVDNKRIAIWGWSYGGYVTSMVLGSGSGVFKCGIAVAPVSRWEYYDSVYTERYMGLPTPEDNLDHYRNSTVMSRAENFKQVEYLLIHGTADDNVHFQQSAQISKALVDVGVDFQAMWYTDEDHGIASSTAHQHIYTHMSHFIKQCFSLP
methodSummary: Inhibition of DPP4 at 100 uM after 15 mins by spectrofluorimeter
The source made the active and inactive calls. The calls are words filed in the database; no cut-off is given here.
measureName: inhibition

Solved cases (4 shown):
compound="CC1(C)CC(=O)C2=C(C1)NC(c1ccccc1)=CC2c1ccc([N+](=O)[O-])cc1 (stereo unspecified)" measurename=inhibition value=inactive
compound="CCOC(=O)C1=CC(c2ccc(Br)cc2)C2=C(CC(C)(C)CC2=O)N1 (stereo unspecified)" measurename=inhibition value=inactive
compound="O=C1CCCC2=C1C(c1ccc(Cl)cc1)C=C(c1ccccc1)N2 (stereo unspecified)" measurename=inhibition value=inactive
compound="CCOC(=O)C1(O)CC(c2ccccc2)C2=C(CC(C)(C)CC2=O)O1 (stereo unspecified)" measurename=inhibition value=inactive

Field inhibition (entry CCOC(=O)C1(O)CC(c2ccc(Br)cc2)C2=C(CC(C)(C)CC2=O)O1 (stereo unspecified) ) reads inactive

According to the records, this compound COc1ccc(C2C=C(c3ccccc3)NC3=C2C(=O)CC(C)(C)C3)cc1 (stereo unspecified) displays inhibition of 8.6%

Value of inhibition reported for the compound CC1(C)CC(=O)C2=C(C1)NC(C(=O)O)=CC2c1ccc(Br)cc1 (stereo unspecified) is inactive

###

Test system: Rattus norvegicus
methodSummary: Antihyperglycemic activity in Charles Foster-Wistar albino rat sucrose loaded model assessed as decrease of blood glucose level at 100 mg/kg, po administered 30 mins before glucose challenge measured up to 120 mins by glucometer
Format: functional
Parameters: scale not given: the % may be the effect or the level left
conditionsUsed: in the assay text read “Sprague-Dawley” for “Charles Foster-Wistar”
measureName: Activity
Lab note: write values as number then unit, every time.

Recorded results for 8 compounds are shown here.
compound="CC1(C)CC(=O)C2=C(C1)NC(c1ccccc1)=CC2c1ccco1 (stereo not given)" experimentaltarget="Rattus norvegicus" value=14.6%
compound="CC1(C)CC(=O)C2=C(C1)NC(c1ccccc1)=CC2c1ccccc1 (stereo not given)" experimentaltarget="Rattus norvegicus" value=24.9%
compound="CC1(C)CC(=O)C2=C(C1)NC(C(=O)O)=CC2c1ccccc1 (stereo not given)" experimentaltarget="Rattus norvegicus" value=28.9%
compound="COc1ccc(Cl)cc1C(=O)NCCc1ccc(S(=O)(=O)NC(=O)NC2CCCCC2)cc1 [GLYBURIDE]" experimentaltarget="Rattus norvegicus" value=32.5%
compound="CC1(C)CC(=O)C2=C(C1)NC(c1ccccc1)=CC2c1ccc(Cl)cc1 (stereo not given)" experimentaltarget="Rattus norvegicus" value=23.5%
compound="COc1ccc(C2C=C(c3ccccc3)NC3=C2C(=O)CCC3)cc1 (stereo not given)" experimentaltarget="Rattus norvegicus" value=29.6%
compound="CC1(C)CC(=O)C2=C(C1)NC(C(=O)O)=CC2c1ccc(Br)cc1 (stereo not given)" experimentaltarget="Rattus norvegicus" value=31.7%
compound="COc1ccc(C2C=C(C(=O)O)NC3=C2C(=O)CC(C)(C)C3)cc1 (stereo not given)" experimentaltarget="Rattus norvegicus" value=42.7%

Reported Activity for "CN(C)C(=N)NC(=N)N" was 13.5%

CCOC(=O)C1=CC(c2ccccc2)C2=C(CC(C)(C)CC2=O)N1 (stereo not given) has a reported Activity of 16.6%
